System: SNB-19
Test: NCI tumour cell line growth inhibition, 48 h
Active and inactive are the calls of the source. Rule as the data show it: active = GI50 up to about 1.1 µM and inactive = higher.

Molecule	Target desc	GI50
Brc1ccc(-c2cc3c(cc2C2SCCS2)OCO3)cc1	SNB-19	55.5 µM (inactive)
CC1CC(C)C2=NOS3=C2C1=NO3 (stereo not given)	SNB-19	> 100 µM (inactive)
Cc1c(O)ccc2c(O)c(NC(=O)c3ccc4c(c3)CCC(C)(C)O4)c(=O)oc12	SNB-19	> 100 µM (inactive)
CC(=O)C(I(OS(=O)(=O)c1ccc(C)cc1)c1ccccc1)=P(c1ccccc1)(c1ccccc1)c1ccccc1	SNB-19	38.5 µM (inactive)
CCCCCCCCCCCCCCCC(=O)OCCOCCOCCOCCOCCOC(=O)CCCCCCCCCCCCCCC	SNB-19	> 100 µM (inactive)
